Test system: nude mice, A549 intrarenal xenograft, tumor weight change
Assay: NCI In Vivo Anticancer Drug Screen. Data for tumor model A549 Human Adenocarcinoma of Lung with characteristics of Type II Alveolar Epithelial cells (intrarenal inoculation) in NU/NU BALB/C (nude) mice
Details: endpoint: mean tumor weight change; dose: 600.0 mg/kg/injection; schedule: Q04DX003 (ip); vehicle: saline with Tween-80; higher = larger tumour
Inconclusive results are not listed.
Result type: T/C

>  <Entry smiles>
Nc1ccc2ccc(NS(=O)(=O)N3CCCCC3)cc2c1

>  <Result>
32 % of control

$$$$
>  <Entry smiles>
O=C(Nc1cc(Cl)ccc1C(=O)O)c1cccc(C[n+]2ccccc2)c1

>  <Result>
20 % of control

$$$$
>  <Entry smiles>
Nc1n[nH]c2ccccc12

>  <Result>
33 % of control

$$$$
>  <Entry smiles>
NC(=O)c1cc(Cl)nc2nc(Cl)nc(N)c12

>  <Result>
55 % of control

$$$$
>  <Entry smiles>
Nc1ccn([C@@H](C=O)C[C@@H](C=O)CO)c(=O)n1

>  <Result>
48 % of control

$$$$

====

Quick list: T/C per entry.
System: nude mice, A549 intrarenal xenograft, tumor weight change
Test: NCI In Vivo Anticancer Drug Screen. Data for tumor model A549 Human Adenocarcinoma of Lung with characteristics of Type II Alveolar Epithelial cells (intrarenal inoculation) in NU/NU BALB/C (nude) mice
Conditions: endpoint: mean tumor weight change; dose: 25.0 mg/kg/injection; schedule: Q04DX003 (ip); vehicle: saline; higher = larger tumour
Inconclusive results are not listed.

>  <Compound>
CNC(=O)OCc1nc(SC)n(C)c1COC(=O)NC

>  <T/C>
28 % of control

$$$$
>  <Compound>
Nc1nc(Br)nc2c1ncn2C1CC(O)C(CO)O1 (stereo unspecified)

>  <T/C>
92 % of control

$$$$
>  <Compound>
Cc1ccc(C(=O)Nc2ccc(S(=O)(=O)O)c3cc(S(=O)(=O)O)cc(S(=O)(=O)O)c23)cc1NC(=O)c1cccc(NC(=O)Nc2cccc(C(=O)Nc3cc(C(=O)Nc4ccc(S(=O)(=O)O)c5cc(S(=O)(=O)O)cc(S(=O)(=O)O)c45)ccc3C)c2)c1

>  <T/C>
99 % of control

$$$$
>  <Compound>
CC(=O)/C(=C\c1ccc(Cl)c(Cl)c1)C(=O)CCN(C)C

>  <T/C>
39 % of control

$$$$
>  <Compound>
O=c1[nH]cc(F)c(=O)[nH]1

>  <T/C>
207 % of control

$$$$
>  <Compound>
C/C(=N\NC(=O)c1ccccc1O)c1cccc(/C(C)=N/NC(=O)c2ccccc2O)n1

>  <T/C>
97 % of control

$$$$
